The following compounds each carry a recorded pIC50 for UniProt P22735.
Sequence (P22735 whole entry): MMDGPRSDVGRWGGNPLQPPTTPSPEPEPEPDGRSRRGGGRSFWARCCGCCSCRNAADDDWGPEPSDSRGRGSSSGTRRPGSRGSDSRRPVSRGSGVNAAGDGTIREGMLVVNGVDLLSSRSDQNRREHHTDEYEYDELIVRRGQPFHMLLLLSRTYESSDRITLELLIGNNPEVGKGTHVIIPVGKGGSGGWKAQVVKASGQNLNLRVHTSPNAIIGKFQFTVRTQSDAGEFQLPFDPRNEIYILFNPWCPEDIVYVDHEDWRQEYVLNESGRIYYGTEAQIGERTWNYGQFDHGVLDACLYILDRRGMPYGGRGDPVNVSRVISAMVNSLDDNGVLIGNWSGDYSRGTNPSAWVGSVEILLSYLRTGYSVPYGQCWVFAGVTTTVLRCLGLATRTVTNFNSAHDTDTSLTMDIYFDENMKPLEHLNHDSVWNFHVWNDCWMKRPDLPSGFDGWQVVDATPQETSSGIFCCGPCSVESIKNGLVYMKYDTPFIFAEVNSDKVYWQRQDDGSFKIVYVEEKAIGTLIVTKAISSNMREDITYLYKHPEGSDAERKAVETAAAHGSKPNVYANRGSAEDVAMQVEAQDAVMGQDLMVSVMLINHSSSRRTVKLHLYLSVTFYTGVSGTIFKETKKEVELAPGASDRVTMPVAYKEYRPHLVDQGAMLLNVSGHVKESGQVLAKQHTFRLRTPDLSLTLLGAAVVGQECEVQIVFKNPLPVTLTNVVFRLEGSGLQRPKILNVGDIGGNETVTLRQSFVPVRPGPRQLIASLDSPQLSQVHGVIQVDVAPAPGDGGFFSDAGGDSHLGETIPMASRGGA
Lab note: report pIC50 as minus log10 of the concentration in molar units, number only.

// sample `O=C(CBr)NCC(=O)N1CCN(C(=O)OCCC23CC4CC(CC(C4)C2)C3)CC1` , its pIC50 was 5.52

Entry `COC(=O)c1ccc2cc(COC(=O)N3CCN(C(=O)CNC(=O)CBr)CC3)ccc2c1` — recorded pIC50 = 5.30

Input `C=CC(=O)NCC(=O)N1CCN(C(=O)C23CC4CC(CC(C4)C2)C3)CC1` . Output pIC50: 5.66

Value of pIC50 reported for the compound `O=C(CBr)NCC(=O)N1CCN(C(=O)C23CC4CC(CC(C4)C2)C3)CC1` is 6.00
